# METHOD_NOTES: Cytotoxicity against human HEK293T cells with low TrxR expression assessed as reduction in cell viability incubated for 48 hrs by MTT assay
# Format: toxicity, cell-based, HEK-293T
MEASURED_PARAMETER: IC50 at 48 h (µM)
Reply with just the number (in µM).

COc1ccc(C[C@H](N)C(=O)N[C@H]2[C@@H](O)[C@H](n3cnc4c(N(C)C)ncnc43)O[C@@H]2CO)cc1 [PUROMYCIN] :: 1.28
COc1ccc(C[C@H](NC(=O)OCCSSCCO)C(=O)N[C@H]2[C@@H](O)[C@H](n3cnc4c(N(C)C)ncnc43)O[C@@H]2CO)cc1 :: 24.7

Then there is this molecule:
Consider `COc1ccc(C[C@H](NC(=O)OC2CSSC2)C(=O)N[C@H]2[C@@H](O)[C@H](n3cnc4c(N(C)C)ncnc43)O[C@@H]2CO)cc1` . Its measured IC50 at 48 h is 19.5

----------
# METHOD_NOTES: Stability in human plasma assessed as parent compound remaining at 100 uM measured after 48 hrs by HPLC analysis
# Format: ADME, cell-free
# MEASUREMENT_SETUP: read-out: Stability
// values below are reported remaining at 48 h, 100 µM

Look over these answered cases.
COc1ccc(C[C@H](NC(=O)OC2CSSC2)C(=O)N[C@H]2[C@@H](O)[C@H](n3cnc4c(N(C)C)ncnc43)O[C@@H]2CO)cc1 :: > 90%
COc1ccc(C[C@H](NC(=O)OCCSSCCO)C(=O)N[C@H]2[C@@H](O)[C@H](n3cnc4c(N(C)C)ncnc43)O[C@@H]2CO)cc1 :: 29%
COc1ccc(C[C@H](NC(=O)OCCCCCCO)C(=O)N[C@H]2[C@@H](O)[C@H](n3cnc4c(N(C)C)ncnc43)O[C@@H]2CO)cc1 :: > 90%

remaining at 48 h, 100 µM measured on `COc1ccc(C[C@H](NC(=O)OC2CCCC2)C(=O)N[C@H]2[C@@H](O)[C@H](n3cnc4c(N(C)C)ncnc43)O[C@@H]2CO)cc1` = > 90%

----------
# METHOD_NOTES: Cytotoxicity against human BEAS-2B cells with low TrxR expression assessed as reduction in cell viability incubated for 48 hrs by MTT assay
# Type: toxicity, cell-based
MEASURED_PARAMETER: IC50 at 48 h

In plain terms, `COc1ccc(C[C@H](NC(=O)OCCCCCCO)C(=O)N[C@H]2[C@@H](O)[C@H](n3cnc4c(N(C)C)ncnc43)O[C@@H]2CO)cc1` has a documented IC50 at 48 h of > 40 µM

Reported IC50 at 48 h for `COc1ccc(C[C@H](NC(=O)OCCSSCCO)C(=O)N[C@H]2[C@@H](O)[C@H](n3cnc4c(N(C)C)ncnc43)O[C@@H]2CO)cc1` was 12.6 µM

Noted for `COc1ccc(C[C@H](N)C(=O)N[C@H]2[C@@H](O)[C@H](n3cnc4c(N(C)C)ncnc43)O[C@@H]2CO)cc1` : its IC50 at 48 h reads 0.74 µM

Entry `COc1ccc(C[C@H](NC(=O)OC2CCCC2)C(=O)N[C@H]2[C@@H](O)[C@H](n3cnc4c(N(C)C)ncnc43)O[C@@H]2CO)cc1` ; IC50 at 48 h = > 40 µM

Record `COc1ccc(C[C@H](NC(=O)OC2CSSC2)C(=O)N[C@H]2[C@@H](O)[C@H](n3cnc4c(N(C)C)ncnc43)O[C@@H]2CO)cc1` . Reported IC50 at 48 h: 8.42 µM
